Molecular target: MAGI2_5, Q86UL8
Sequence (Q86UL8 915-1017): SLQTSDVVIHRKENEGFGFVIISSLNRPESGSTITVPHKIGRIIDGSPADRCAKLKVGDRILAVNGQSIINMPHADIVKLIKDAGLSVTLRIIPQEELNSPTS
Experiment: holdup assay
Parameters: key: below the threshold = too weak to quantify, mostly under pKd 3.1 to 4
Settings: plain residues with an end cap or a label only (N-terminal biotin on a linker: ado-ado)
quantityMeasured: pKd

# example entries with known answers
>>> result("EDLEDEWEVI [TECPR2, O15040]")
"below the threshold"
>>> result("ILRKSTTTTV [PRR16, Q569H4]")
"below the threshold"
>>> result("AAVENKVTDL [PLXNB1, O43157]")
"below the threshold"
>>> result("NVYGIESVKI [GRIA2, P42262]")
"below the threshold"
>>> result("NTLNRKTTPV [CACNG8, Q8WXS5]")
"below the threshold"

For every item in the list below, what is its measured pKd?
1. NNNVVKVDSV [MTNR1A, P48039]
2. AQRARSPSDV [GPR12, P47775]

[out]
["below the threshold", "below the threshold"]

Quick one: give me pKd for each item below, same order please.
1. STKRKLASAV [NCF1, P14598]
2. DFLSTFHIRI [CIB2, O75838]
3. ARGPPRESEV [FAM110D, Q8TAY7]
4. KPGKGSETVV [FZD4, Q9ULV1]
5. REEPDHSTEV [CCRL2, O00421]
6. QKAPTKEFYA [SDC2, P34741]

[out]
1: 3.99; 2: below the threshold; 3: 3.9; 4: 3.55; 5: 4.68; 6: below the threshold
